# Ratio IC50 per entry
species on record: Homo sapiens; experiment: Selectivity index, ratio of IC50 for human serum BuChE to IC50 for human AChE

>  <mol>
Cc1cc(=O)oc2cc(OCc3cc[n+](Cc4ccccc4F)cc3)ccc12.[Br-]

>  <Ratio IC50>
> 153

$$$$
>  <mol>
Cc1ccccc1C[n+]1ccc(COc2ccc3c(C)cc(=O)oc3c2)cc1.[Br-]

>  <Ratio IC50>
> 282

$$$$
>  <mol>
Cc1cc(=O)oc2cc(OCc3cc[n+](Cc4ccccc4)cc3)ccc12.[Br-]

>  <Ratio IC50>
> 28.4

$$$$
>  <mol>
Cc1cc(=O)oc2cc(OCc3cc[n+](Cc4cccc(Br)c4)cc3)ccc12.[Br-]

>  <Ratio IC50>
> 77.8

$$$$
>  <mol>
Cc1cc(=O)oc2cc(OCc3cc[n+](Cc4ccc(Br)cc4)cc3)ccc12.[Br-]

>  <Ratio IC50>
> 41.1

$$$$

---

tested on: PC-12; assay: Cytotoxicity against rat PC12 cells assessed as reduction in cell viability at 100 uM after 24 hrs by MTT assay relative to control; assay type: cell-based; conditions: pc-12, 24 h

>  <mol>
Cc1cc(=O)oc2cc(OCc3cc[n+](Cc4ccccc4)cc3)ccc12.[Br-]

>  <system-under-test>
PC-12

>  <Activity (%)>
97.5

$$$$
>  <mol>
Cc1cc(=O)oc2cc(OCc3cc[n+](Cc4ccccc4Br)cc3)ccc12.[Br-]

>  <system-under-test>
PC-12

>  <Activity (%)>
97.6

$$$$
>  <mol>
Cc1cc(=O)oc2cc(OCc3cc[n+](Cc4ccc(F)cc4)cc3)ccc12.[Br-]

>  <system-under-test>
PC-12

>  <Activity (%)>
94.8

$$$$
>  <mol>
Cc1cc(=O)oc2cc(OCc3cc[n+](Cc4cccc([N+](=O)[O-])c4)cc3)ccc12.[Br-]

>  <system-under-test>
PC-12

>  <Activity (%)>
98.4

$$$$
>  <mol>
Cc1cc(=O)oc2cc(OCc3cc[n+](Cc4cccc(Br)c4)cc3)ccc12.[Br-]

>  <system-under-test>
PC-12

>  <Activity (%)>
96.8

$$$$
>  <mol>
Cc1cccc(C[n+]2ccc(COc3ccc4c(C)cc(=O)oc4c3)cc2)c1.[Br-]

>  <system-under-test>
PC-12

>  <Activity (%)>
101.5

$$$$
>  <mol>
Cc1cc(=O)oc2cc(OCc3cc[n+](Cc4cccc(F)c4)cc3)ccc12.[Br-]

>  <system-under-test>
PC-12

>  <Activity (%)>
99.6

$$$$
>  <mol>
Cc1ccccc1C[n+]1ccc(COc2ccc3c(C)cc(=O)oc3c2)cc1.[Br-]

>  <system-under-test>
PC-12

>  <Activity (%)>
97.1

$$$$
>  <mol>
Cc1cc(=O)oc2cc(OCc3cc[n+](Cc4ccc([N+](=O)[O-])cc4)cc3)ccc12.[Br-]

>  <system-under-test>
PC-12

>  <Activity (%)>
99.5

$$$$
>  <mol>
Cc1cc(=O)oc2cc(OCc3cc[n+](Cc4ccccc4F)cc3)ccc12.[Br-]

>  <system-under-test>
PC-12

>  <Activity (%)>
100.8

$$$$
>  <mol>
Cc1cc(=O)oc2cc(OCc3cc[n+](Cc4ccc(Br)cc4)cc3)ccc12.[Br-]

>  <system-under-test>
PC-12

>  <Activity (%)>
98.5

$$$$
>  <mol>
Cc1ccc(C[n+]2ccc(COc3ccc4c(C)cc(=O)oc4c3)cc2)cc1.[Br-]

>  <system-under-test>
PC-12

>  <Activity (%)>
99.4

$$$$

---

assay: Selectivity index, ratio of IC50 for equine serum BuChE to IC50 for electric eel AChE
Documented Ratio IC50 across a set of compounds

>  <mol>
Cc1cc(=O)oc2cc(OCc3cc[n+](Cc4ccc([N+](=O)[O-])cc4)cc3)ccc12.[Br-]

>  <Ratio IC50>
> 8.4

$$$$
>  <mol>
Cc1cccc(C[n+]2ccc(COc3ccc4c(C)cc(=O)oc4c3)cc2)c1.[Br-]

>  <Ratio IC50>
62.2

$$$$
>  <mol>
Cc1cc(=O)oc2cc(OCc3cc[n+](Cc4cccc(Br)c4)cc3)ccc12.[Br-]

>  <Ratio IC50>
69.8

$$$$
>  <mol>
Cc1cc(=O)oc2cc(OCc3cc[n+](Cc4ccc(F)cc4)cc3)ccc12.[Br-]

>  <Ratio IC50>
101

$$$$
>  <mol>
Cc1ccc(C[n+]2ccc(COc3ccc4c(C)cc(=O)oc4c3)cc2)cc1.[Br-]

>  <Ratio IC50>
56.3

$$$$
>  <mol>
Cc1ccccc1C[n+]1ccc(COc2ccc3c(C)cc(=O)oc3c2)cc1.[Br-]

>  <Ratio IC50>
64.7

$$$$
>  <mol>
Cc1cc(=O)oc2cc(OCc3cc[n+](Cc4ccc(Br)cc4)cc3)ccc12.[Br-]

>  <Ratio IC50>
41.1

$$$$
>  <mol>
Cc1cc(=O)oc2cc(OCc3cc[n+](Cc4ccccc4)cc3)ccc12.[Br-]

>  <Ratio IC50>
11.2

$$$$
>  <mol>
Cc1cc(=O)oc2cc(OCc3cc[n+](Cc4ccccc4F)cc3)ccc12.[Br-]

>  <Ratio IC50>
55.6

$$$$
>  <mol>
Cc1cc(=O)oc2cc(OCc3cc[n+](Cc4cccc(F)c4)cc3)ccc12.[Br-]

>  <Ratio IC50>
106

$$$$
>  <mol>
Cc1cc(=O)oc2cc(OCc3cc[n+](Cc4ccccc4Br)cc3)ccc12.[Br-]

>  <Ratio IC50>
13.2

$$$$

---

Biological target: Amine oxidase [flavin-containing] A (Homo sapiens)
Sequence (P21397 whole entry): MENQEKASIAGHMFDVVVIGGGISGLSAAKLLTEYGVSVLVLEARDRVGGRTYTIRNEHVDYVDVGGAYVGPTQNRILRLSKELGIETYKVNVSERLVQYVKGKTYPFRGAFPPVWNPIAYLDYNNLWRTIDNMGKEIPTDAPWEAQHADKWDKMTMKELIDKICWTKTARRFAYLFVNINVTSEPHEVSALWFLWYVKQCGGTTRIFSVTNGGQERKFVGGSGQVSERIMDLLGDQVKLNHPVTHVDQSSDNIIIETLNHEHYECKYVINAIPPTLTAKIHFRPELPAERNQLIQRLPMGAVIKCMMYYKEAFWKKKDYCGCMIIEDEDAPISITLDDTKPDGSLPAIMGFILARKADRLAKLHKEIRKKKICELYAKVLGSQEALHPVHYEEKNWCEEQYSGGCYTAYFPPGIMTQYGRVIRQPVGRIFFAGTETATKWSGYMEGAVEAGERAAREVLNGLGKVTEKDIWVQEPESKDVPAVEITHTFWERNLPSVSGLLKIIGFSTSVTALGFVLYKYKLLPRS
Assay: Inhibition of recombinant human MAOA using p-tyramine as substrate after 15 mins by Amplex Red dye-based fluorometric method
pIC50: −log10 of the molar value.

>  <mol>
Cc1cc(=O)oc2cc(OCc3cc[n+](Cc4ccc(F)cc4)cc3)ccc12.[Br-]

>  <system-under-test>
Amine oxidase [flavin-containing] A (Homo sapiens)

>  <pIC50>
5.34

$$$$

---

pIC50: −log10 of the molar value.
A set of molecules tested on Acetylcholinesterase (Homo sapiens), with measured pIC50:

>  <mol>
Cc1cc(=O)oc2cc(OCc3cc[n+](Cc4cccc(F)c4)cc3)ccc12.[Br-]

>  <pIC50>
7.38

$$$$
>  <mol>
Cc1cc(=O)oc2cc(OCc3cc[n+](Cc4cccc([N+](=O)[O-])c4)cc3)ccc12.[Br-]

>  <pIC50>
6.64

$$$$
>  <mol>
Cc1ccc(C[n+]2ccc(COc3ccc4c(C)cc(=O)oc4c3)cc2)cc1.[Br-]

>  <pIC50>
6.60

$$$$
>  <mol>
Cc1cc(=O)oc2cc(OCc3cc[n+](Cc4ccccc4F)cc3)ccc12.[Br-]

>  <pIC50>
7.19

$$$$
>  <mol>
Cc1cc(=O)oc2cc(OCc3cc[n+](Cc4ccc(F)cc4)cc3)ccc12.[Br-]

>  <pIC50>
7.43

$$$$
>  <mol>
Cc1cc(=O)oc2cc(OCc3cc[n+](Cc4cccc(Br)c4)cc3)ccc12.[Br-]

>  <pIC50>
6.89

$$$$
>  <mol>
Cc1cc(=O)oc2cc(OCc3cc[n+](Cc4ccc(Br)cc4)cc3)ccc12.[Br-]

>  <pIC50>
6.66

$$$$
>  <mol>
Cc1ccccc1C[n+]1ccc(COc2ccc3c(C)cc(=O)oc3c2)cc1.[Br-]

>  <pIC50>
7.45

$$$$
>  <mol>
Cc1cc(=O)oc2cc(OCc3cc[n+](Cc4ccccc4Br)cc3)ccc12.[Br-]

>  <pIC50>
7.11

$$$$

---

target: Cholinesterase (Equus caballus, UniProt P81908); assay: Inhibition of equine serum BuChE using S-butyrylthiocholine iodide as substrate preincubated for 6 mins followed by substrate addition measured up to 180 secs by Ellman's method
Sequence (P81908 whole entry): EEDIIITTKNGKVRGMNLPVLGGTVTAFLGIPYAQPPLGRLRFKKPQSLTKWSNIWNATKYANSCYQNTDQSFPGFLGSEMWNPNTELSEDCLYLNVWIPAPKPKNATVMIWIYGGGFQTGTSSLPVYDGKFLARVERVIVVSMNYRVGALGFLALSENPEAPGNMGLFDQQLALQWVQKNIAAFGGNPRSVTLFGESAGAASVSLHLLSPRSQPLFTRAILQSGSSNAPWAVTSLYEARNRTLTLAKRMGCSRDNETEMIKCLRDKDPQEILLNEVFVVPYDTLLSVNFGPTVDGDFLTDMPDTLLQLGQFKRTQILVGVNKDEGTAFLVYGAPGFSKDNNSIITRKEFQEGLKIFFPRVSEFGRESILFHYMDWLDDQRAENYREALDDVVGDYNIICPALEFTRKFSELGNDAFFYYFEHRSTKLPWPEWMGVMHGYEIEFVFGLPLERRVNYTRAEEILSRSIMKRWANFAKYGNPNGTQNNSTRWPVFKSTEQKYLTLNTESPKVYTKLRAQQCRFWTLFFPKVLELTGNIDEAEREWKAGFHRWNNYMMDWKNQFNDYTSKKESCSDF
pIC50: −log10 of the molar value.
# pIC50 per record follows
reported-endpoint: pIC50

>  <mol>
Cc1ccc(C[n+]2ccc(COc3ccc4c(C)cc(=O)oc4c3)cc2)cc1.[Br-]

>  <system-under-test>
Cholinesterase (Equus caballus, UniProt P81908)

>  <reported-endpoint>
pIC50

>  <censoring-qualifier>
=

>  <val>
5.12

$$$$
>  <mol>
Cc1ccccc1C[n+]1ccc(COc2ccc3c(C)cc(=O)oc3c2)cc1.[Br-]

>  <system-under-test>
Cholinesterase (Equus caballus, UniProt P81908)

>  <reported-endpoint>
pIC50

>  <censoring-qualifier>
=

>  <val>
5.79

$$$$
>  <mol>
Cc1cc(=O)oc2cc(OCc3cc[n+](Cc4cccc([N+](=O)[O-])c4)cc3)ccc12.[Br-]

>  <system-under-test>
Cholinesterase (Equus caballus, UniProt P81908)

>  <reported-endpoint>
pIC50

>  <censoring-qualifier>
=

>  <val>
5.36

$$$$
>  <mol>
Cc1cc(=O)oc2cc(OCc3cc[n+](Cc4ccc(Br)cc4)cc3)ccc12.[Br-]

>  <system-under-test>
Cholinesterase (Equus caballus, UniProt P81908)

>  <reported-endpoint>
pIC50

>  <censoring-qualifier>
=

>  <val>
5.31

$$$$
>  <mol>
Cc1cc(=O)oc2cc(OCc3cc[n+](Cc4ccc(F)cc4)cc3)ccc12.[Br-]

>  <system-under-test>
Cholinesterase (Equus caballus, UniProt P81908)

>  <reported-endpoint>
pIC50

>  <censoring-qualifier>
=

>  <val>
5.53

$$$$
>  <mol>
Cc1cc(=O)oc2cc(OCc3cc[n+](Cc4cccc(Br)c4)cc3)ccc12.[Br-]

>  <system-under-test>
Cholinesterase (Equus caballus, UniProt P81908)

>  <reported-endpoint>
pIC50

>  <censoring-qualifier>
=

>  <val>
5.36

$$$$
>  <mol>
Cc1cc(=O)oc2cc(OCc3cc[n+](Cc4ccccc4F)cc3)ccc12.[Br-]

>  <system-under-test>
Cholinesterase (Equus caballus, UniProt P81908)

>  <reported-endpoint>
pIC50

>  <censoring-qualifier>
=

>  <val>
5.79

$$$$
>  <mol>
Cc1cc(=O)oc2cc(OCc3cc[n+](Cc4cccc(F)c4)cc3)ccc12.[Br-]

>  <system-under-test>
Cholinesterase (Equus caballus, UniProt P81908)

>  <reported-endpoint>
pIC50

>  <censoring-qualifier>
=

>  <val>
5.56

$$$$
>  <mol>
Cc1cc(=O)oc2cc(OCc3cc[n+](Cc4ccccc4Br)cc3)ccc12.[Br-]

>  <system-under-test>
Cholinesterase (Equus caballus, UniProt P81908)

>  <reported-endpoint>
pIC50

>  <censoring-qualifier>
=

>  <val>
6.32

$$$$
>  <mol>
Cc1cc(=O)oc2cc(O)ccc12

>  <system-under-test>
Cholinesterase (Equus caballus, UniProt P81908)

>  <reported-endpoint>
pIC50

>  <censoring-qualifier>
<

>  <val>
4.00

$$$$
>  <mol>
Cc1cccc(C[n+]2ccc(COc3ccc4c(C)cc(=O)oc4c3)cc2)c1.[Br-]

>  <system-under-test>
Cholinesterase (Equus caballus, UniProt P81908)

>  <reported-endpoint>
pIC50

>  <censoring-qualifier>
=

>  <val>
5.63

$$$$
>  <mol>
Cc1cc(=O)oc2cc(OCc3cc[n+](Cc4ccccc4)cc3)ccc12.[Br-]

>  <system-under-test>
Cholinesterase (Equus caballus, UniProt P81908)

>  <reported-endpoint>
pIC50

>  <censoring-qualifier>
=

>  <val>
5.37

$$$$
